System Name: human α4β7 integrin on cells (human) (UniProt P13612)
Assay Remarks: RPMI8866 adhesion to MAdCAM-1
Bridge positions count the residues as written; N and C are the ends. Square brackets hold non-standard residues; d marks the D form. Ends that are not written are not given here. 1Nal = N[C@@H](Cc1cccc2ccccc12)C(=O)O; 2Nal = N[C@@H](Cc1ccc2ccccc2c1)C(=O)O; d1Nal = N[C@H](Cc1cccc2ccccc12)C(=O)O; NMeR = CN[C@@H](CCCNC(=N)N)C(=O)O; Tic = O=C(O)[C@@H]1Cc2ccccc2CN1; Pen = CC(C)(S)[C@H](N)C(=O)O; Dab = NCC[C@H](N)C(=O)O; Dap = NC[C@H](N)C(=O)O
Outcome Measure: IC50

Solved cases (5 shown):
1. Ac-[Pen][NMeR]SDTL[Pen]WE[Dap] (disulfide 1-7; also: C-terminus written Dap-Ac, acetyl place unclear) [SEQ ID NO: 60]	> 1000 nM
2. Ac-[Pen][NMeR]SDTL[Pen][d1Nal]E[dK]-NH2 (disulfide 1-7; also: dimer via DIG) [SEQ ID NO: 34]	> 25 nM
3. Ac-[Pen][NMeR]SDTL[Pen]WE[Dab]-NH2 (disulfide 1-7; SMILES CC(=O)N[C@@H]1C(=O)N(C)[C@@H](CCCNC(=N)N)C(=O)N[C@@H](CO)C(=O)N[C@@H](CC(=O)O)C(=O)N[C@@H]([C@@H](C)O)C(=O)N[C@@H](CC(C)C)C(=O)N[C@H](C(=O)N[C@@H](Cc2c[nH]c3ccccc23)C(=O)N[C@@H](CCC(=O)O)C(=O)N[C@@H](CCN)C(N)=O)C(C)(C)SSC1(C)C) [SEQ ID NO: 61]	> 1000 nM
4. Ac-[Pen][NMeR]SDLL[Pen][2Nal][dE]-NH2 (disulfide 1-7; SMILES CC(=O)N[C@@H]1C(=O)N(C)[C@@H](CCCNC(=N)N)C(=O)N[C@@H](CO)C(=O)N[C@@H](CC(=O)O)C(=O)N[C@@H](CC(C)C)C(=O)N[C@@H](CC(C)C)C(=O)N[C@H](C(=O)N[C@@H](Cc2ccc3ccccc3c2)C(=O)N[C@H](CCC(=O)O)C(N)=O)C(C)(C)SSC1(C)C) [SEQ ID NO: 159]	> 1000 nM
5. Ac-[Pen][NMeR]SDTL[Pen][2Nal]Y[dK]-NH2 (disulfide 1-7; also: dimer via DIG) [SEQ ID NO: 23]	< 10 nM

query: # IC50 lookup, item Ac-[Pen][NMeR]SDTL[Pen][1Nal][dH][dK]-NH2 (disulfide 1-7 (inferred); also: homodimer via DIG) [SEQ ID NO: 112]
result: > 50 nM

query: Record: Ac-[Pen][NMeR]SDTL[Pen][2Nal][Tic][dK]-NH2 (disulfide 1-7 (inferred); also: homodimer via DIG) [SEQ ID NO: 121]
result: > 100 nM
